system: green foxtail (Setaria viridis L.): SETVI; test: Test Example 1 pre-emergence herbicidal activity, SETVI; format: in vivo; details: Rate 125 g a.i./ha, visually observed 20th to 23rd day after application
Pre-emergence Herbicidal Activity SETVI (growth controlling degree) values, listed per item
Give the quantity in %, number only.

- Molecular String: "COCCOC(=O)N(C(=O)OCCOC)c1c(OC)c(Cl)cc(F)c1-c1nn(C)c(OC(F)F)c1Cl"
  Unit Label: "%"
  Val: 100
- Molecular String: "COc1c(Cl)cc(F)c(-c2nn(C)c(OC(F)F)c2Cl)c1NC(=O)c1ccc2ccccc2c1"
  Unit Label: "%"
  Val: 90
- Molecular String: "COC(=O)CN(C=O)c1c(OC)c(Cl)cc(F)c1-c1nn(C)c(OC(F)F)c1Cl"
  Unit Label: "%"
  Val: 10
- Molecular String: "COc1c(Cl)cc(F)c(-c2nn(C)c(OC(F)F)c2Cl)c1N(C(=O)OCCl)C(=O)OCCl"
  Unit Label: "%"
  Val: 100
- Molecular String: "COc1c(Cl)cc(F)c(-c2nn(C)c(OC(F)F)c2Cl)c1N(C=O)CCOc1ccccc1"
  Unit Label: "%"
  Val: 0
- Molecular String: "COc1ccc(OC(=O)N(C(=O)Oc2ccc(OC)cc2)c2c(OC)c(Cl)cc(F)c2-c2nn(C)c(OC(F)F)c2Cl)cc1"
  Unit Label: "%"
  Val: 10

Now turn to the next compound.
# query: Pre-emergence Herbicidal Activity SETVI (growth controlling degree) of entry COc1c(Cl)cc(F)c(-c2nn(C)c(OC(F)F)c2Cl)c1N(C(=O)OCCCl)C(=O)OCCCl 50

* * *

test system: soybean (Glycine max Merr.), GLXMA; assay: Test Example 2 post-emergence (foliage treatment) herbicidal activity, GLXMA; format: in vivo; settings: 63 g a.i./ha
growth controlling degree, GLXMA: recorded values
# value in %; strip the unit string

- Molecular String: "COCCOC(=O)N(C(=O)OCCOC)c1c(OC)c(Cl)cc(F)c1-c1nn(C)c(OC(F)F)c1Cl"
  Tested System: "soybean (Glycine max Merr.), GLXMA"
  Unit Label: "%"
  Val: 60
- Molecular String: "COc1c(Cl)cc(F)c(-c2nn(C)c(OC(F)F)c2Cl)c1NC(=O)C=Cc1ccc(C)cc1"
  Tested System: "soybean (Glycine max Merr.), GLXMA"
  Unit Label: "%"
  Val: 50
- Molecular String: "COc1c(Cl)cc(F)c(-c2nn(C)c(OC(F)F)c2Cl)c1NC(=O)C(C)C"
  Tested System: "soybean (Glycine max Merr.), GLXMA"
  Unit Label: "%"
  Val: 80

As a next step, examine the molecule that follows.
What value of growth controlling degree, GLXMA has been reported for the following molecule? Cn1nc(-c2c(F)cc(Cl)c(OC(F)F)c2NC(=O)C(F)(F)F)c(Cl)c1OC(F)F 60

* * *

Each record here notes measured Pre-emergence Herbicidal Activity ZEAMX (growth controlling degree).
tested on: corn (Zea mays L.): ZEAMX; assay: Test Example 1 pre-emergence herbicidal activity, ZEAMX; format: in vivo; details: Rate 63 g a.i./ha, visually observed 20th to 23rd day after application
Text: […]
Response body: numeric value in %, unit text excluded.

Consider the following illustrative entries.
- Molecular String: "COc1c(Cl)cc(F)c(-c2nn(C)c(OC(F)F)c2Cl)c1NC1CCCC1"
  Val: 0
- Molecular String: "COc1c(Cl)cc(F)c(-c2nn(C)c(OC(F)F)c2Cl)c1NC(=O)CCc1ccccc1C"
  Val: 0
- Molecular String: "COCCOC(=O)Nc1c(OC)c(Cl)cc(F)c1-c1nn(C)c(OC(F)F)c1Cl"
  Val: 30

Now for a further compound.
What does the data say about its Pre-emergence Herbicidal Activity ZEAMX (growth controlling degree)? Entry: COc1c(Cl)cc(F)c(-c2nn(C)c(OC(F)F)c2Cl)c1NC(=O)c1ccc(F)cc1F 10

* * *

system: soybean (Glycine max Merr.), GLXMA; assay: Test Example 2 post-emergence (foliage treatment) herbicidal activity, GLXMA; format: in vivo; details: 63 g a.i./ha
Parameter Measured: growth controlling degree, GLXMA (%)
I only need the number, in %, no unit after it.

// solved cases for growth controlling degree, GLXMA follow
- Compound: "Cn1nc(-c2c(F)cc(Cl)c(OC(F)F)c2N(C=O)Cc2ccccc2)c(Cl)c1OC(F)F"
  growth controlling degree, GLXMA / %: 40
- Compound: "COc1c(Cl)cc(F)c(-c2nn(C)c(OC(F)F)c2Cl)c1NC(=O)CC(C)(C)C"
  growth controlling degree, GLXMA / %: 50
- Compound: "COc1c(Cl)cc(F)c(-c2nn(C)c(OC(F)F)c2Cl)c1NC(=O)OCc1ccccc1"
  growth controlling degree, GLXMA / %: 80

Lab note: next compound to report on.
Given the compound CCOC(=O)C(C)N(C=O)c1c(OC)c(Cl)cc(F)c1-c1nn(C)c(OC(F)F)c1Cl (stereo not shown) , what is its reported growth controlling degree, GLXMA? 10

* * *

tested on: rice (Oryza sativa L.), ORYSA; assay: Test Example 2 post-emergence (foliage treatment) herbicidal activity, ORYSA; format: in vivo; details: 63 g a.i./ha
Parameter Measured: growth controlling degree, ORYSA (%)
# unit: % | format: bare number

- Molecular String: "COc1c(Cl)cc(F)c(-c2nn(C)c(OC(F)F)c2Cl)c1NC1CCCC1"
  Unit Label: "%"
  growth controlling degree, ORYSA: 40
- Molecular String: "COc1c(Cl)cc(F)c(-c2nn(C)c(OC(F)F)c2Cl)c1NC(=O)CC(C)(C)C"
  Unit Label: "%"
  growth controlling degree, ORYSA: 40
- Molecular String: "COc1c(Cl)cc(F)c(-c2nn(C)c(OC(F)F)c2Cl)c1N(C(=O)CCc1ccccc1)C(=O)CCc1ccccc1"
  Unit Label: "%"
  growth controlling degree, ORYSA: 60

Next:
Can you share its growth controlling degree, ORYSA? I mean this molecule: COc1c(Cl)cc(F)c(-c2nn(C)c(OC(F)F)c2Cl)c1NCCOc1ccccc1 40

* * *

tested on: soybean (Glycine max Merr.), GLXMA; assay: Test Example 2 post-emergence (foliage treatment) herbicidal activity, GLXMA; format: in vivo; details: 63 g a.i./ha
Reported growth controlling degree, GLXMA values for a set of molecules
Quick note: give the figure in %, leave out the unit.

Previously resolved entries follow.
- Molecule: "COc1c(Cl)cc(F)c(-c2nn(C)c(OC(F)F)c2Cl)c1N(C(=O)CCc1ccccc1)C(=O)CCc1ccccc1 [Compound 1-18]"
  growth controlling degree, GLXMA (%): 60
- Molecule: "COc1c(Cl)cc(F)c(-c2nn(C)c(OC(F)F)c2Cl)c1N(C=O)CCOc1ccccc1 [Compound 1-43]"
  growth controlling degree, GLXMA (%): 40
- Molecule: "COc1c(Cl)cc(F)c(-c2nn(C)c(OC(F)F)c2Cl)c1NC(=O)C1CC1 [Compound 1-264]"
  growth controlling degree, GLXMA (%): 70
- Molecule: "C#CCNc1c(OC(F)F)c(Cl)cc(F)c1-c1nn(C)c(OC(F)F)c1Cl [Compound 1-87]"
  growth controlling degree, GLXMA (%): 95
- Molecule: "COc1ccc(COC(=O)Nc2c(OC)c(Cl)cc(F)c2-c2nn(C)c(OC(F)F)c2Cl)cc1 [Compound 1-56]"
  growth controlling degree, GLXMA (%): 100
- Molecule: "COc1c(Cl)cc(F)c(-c2nn(C)c(OC(F)F)c2Cl)c1NC(=O)OCc1cccnc1 [Compound 1-70]"
  growth controlling degree, GLXMA (%): 80
- Molecule: "COc1c(Cl)cc(F)c(-c2nn(C)c(OC(F)F)c2Cl)c1NCCc1cccc(C)c1 [Compound 1-50]"
  growth controlling degree, GLXMA (%): 95
- Molecule: "COc1c(Cl)cc(F)c(-c2nn(C)c(OC(F)F)c2Cl)c1NC(=O)CCOc1ccccc1 [Compound 1-34]"
  growth controlling degree, GLXMA (%): 70

growth controlling degree, GLXMA for COc1cccc(C(=O)Nc2c(OC)c(Cl)cc(F)c2-c2nn(C)c(OC(F)F)c2Cl)c1 [Compound 1-28] ? 98

Using the record for COc1c(Cl)cc(F)c(-c2nn(C)c(OC(F)F)c2Cl)c1NC(=O)OC(C)C [Compound 1-75] , report its growth controlling degree, GLXMA. 60

Look up growth controlling degree, GLXMA for this molecule: COc1c(Cl)cc(F)c(-c2nn(C)c(OC(F)F)c2Cl)c1NC(=O)CCc1ccccc1C [Compound 1-37] 98

I would be grateful if you could share the reported growth controlling degree, GLXMA for COc1c(Cl)cc(F)c(-c2nn(C)c(OC(F)F)c2Cl)c1N(C=O)CC(=O)c1ccc(Cl)cc1 [Compound 1-13] . 50

Look at this molecule and give its reported growth controlling degree, GLXMA. COc1c(Cl)cc(F)c(-c2nn(C)c(OC(F)F)c2Cl)c1NC(=O)c1cccc(Cl)c1 [Compound 1-26] 70

All values here come from patent US20050245399A1.
